Reference source: ChEMBL document CHEMBL3526118

Target: CYP2C8 (Homo sapiens, UniProt P10632)
Sequence (P10632 whole entry): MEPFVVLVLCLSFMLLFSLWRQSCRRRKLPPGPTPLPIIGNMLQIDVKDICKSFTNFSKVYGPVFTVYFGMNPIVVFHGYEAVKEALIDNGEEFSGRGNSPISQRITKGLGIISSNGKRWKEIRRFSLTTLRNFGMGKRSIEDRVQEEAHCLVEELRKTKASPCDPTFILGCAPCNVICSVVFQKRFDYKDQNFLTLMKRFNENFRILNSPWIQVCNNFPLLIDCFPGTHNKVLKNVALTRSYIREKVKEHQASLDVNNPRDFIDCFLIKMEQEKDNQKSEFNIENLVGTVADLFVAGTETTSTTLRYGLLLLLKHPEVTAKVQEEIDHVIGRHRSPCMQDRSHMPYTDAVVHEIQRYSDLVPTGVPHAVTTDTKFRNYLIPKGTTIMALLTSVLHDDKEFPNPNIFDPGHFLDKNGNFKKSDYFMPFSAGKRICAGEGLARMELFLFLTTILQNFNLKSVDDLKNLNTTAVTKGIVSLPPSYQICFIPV
Experiment: in vitro
RECORDED METRIC: inhibition at 100 µM

COMPOUND	TARGET ENTITY	RECORDED METRIC	MEAS VALUE
Cc1cc(CC(=O)O)n(C)c1C(=O)c1ccc(Cl)cc1 [ZOMEPIRAC]	CYP2C8 (Homo sapiens, UniProt P10632)	inhibition at 100 µM	< 10%
Cn1c(=O)c2c(ncn2C)n(C)c1=O	CYP2C8 (Homo sapiens, UniProt P10632)	inhibition at 100 µM	< 10%
COC(=O)[C@H](c1ccccc1Cl)N1CCc2sccc2C1	CYP2C8 (Homo sapiens, UniProt P10632)	inhibition at 100 µM	< 10%
CC[C@H](C)C(=O)O[C@H]1C[C@H](O)C=C2C=C[C@H](C)[C@H](CC[C@@H](O)C[C@@H](O)CC(=O)O)[C@H]21	CYP2C8 (Homo sapiens, UniProt P10632)	inhibition at 100 µM	< 10%
CNCCC(Oc1ccc(C(F)(F)F)cc1)c1ccccc1 (stereo not drawn)	CYP2C8 (Homo sapiens, UniProt P10632)	inhibition at 100 µM	< 10%
NS(=O)(=O)c1cc(C(=O)O)c(NCc2ccco2)cc1Cl [FUROSEMIDE]	CYP2C8 (Homo sapiens, UniProt P10632)	inhibition at 100 µM	< 10%
CC(C)C(=O)Nc1ccc([N+](=O)[O-])c(C(F)(F)F)c1 [FLUTAMIDE]	CYP2C8 (Homo sapiens, UniProt P10632)	inhibition at 100 µM	< 10%
CC(=O)Nc1ccc(O)cc1	CYP2C8 (Homo sapiens, UniProt P10632)	inhibition at 100 µM	< 10%
CCCc1nc(C(C)(C)O)c(C(=O)O)n1Cc1ccc(-c2ccccc2-c2nnn[nH]2)cc1	CYP2C8 (Homo sapiens, UniProt P10632)	inhibition at 100 µM	< 10%
CC(=O)CC(c1ccccc1)c1c(O)c2ccccc2oc1=O (stereo not drawn)	CYP2C8 (Homo sapiens, UniProt P10632)	inhibition at 100 µM	< 10%
NC(=O)N1c2ccccc2C=Cc2ccccc21 [CARBAMAZEPINE]	CYP2C8 (Homo sapiens, UniProt P10632)	inhibition at 100 µM	< 10%
Clc1ccccc1CN1CCc2sccc2C1	CYP2C8 (Homo sapiens, UniProt P10632)	inhibition at 100 µM	< 10%
CC[C@H]1OC(=O)[C@H](C)[C@@H](O[C@H]2C[C@@](C)(OC)[C@@H](O)[C@H](C)O2)[C@H](C)[C@@H](O[C@@H]2O[C@H](C)C[C@H](N(C)C)[C@H]2O)[C@](C)(O)C[C@@H](C)C(=O)[C@H](C)[C@@H](O)[C@]1(C)O	CYP2C8 (Homo sapiens, UniProt P10632)	inhibition at 100 µM	< 10%
COc1ccc(CCN(C)CCCC(C#N)(c2ccc(OC)c(OC)c2)C(C)C)cc1OC (stereo not drawn)	CYP2C8 (Homo sapiens, UniProt P10632)	inhibition at 100 µM	< 10%
CCN(CC)CCNC(=O)c1ccc(N)cc1 [PROCAINAMIDE]	CYP2C8 (Homo sapiens, UniProt P10632)	inhibition at 100 µM	< 10%
CC(C)NCC(O)COc1cccc2ccccc12 (stereo not drawn)	CYP2C8 (Homo sapiens, UniProt P10632)	inhibition at 100 µM	< 10%
CC(C)c1c(C(=O)Nc2ccccc2)c(-c2ccccc2)c(-c2ccc(F)cc2)n1CC[C@@H](O)C[C@@H](O)CC(=O)O	CYP2C8 (Homo sapiens, UniProt P10632)	inhibition at 100 µM	< 10%
Cc1cc(NS(=O)(=O)c2ccc(N)cc2)no1	CYP2C8 (Homo sapiens, UniProt P10632)	inhibition at 100 µM	< 10%
